- assay-system: P. falciparum apicoplast DNA polymerase (Pf-apPOL) (Plasmodium falciparum)
- test-description: Fluorescence-based high-throughput DNA polymerase assay (molecular beacon), primary screen and dose-response
- Type: biochemical
- condition-info: DNA Pol (primary screen value); 90 min, 10 µM
# DNA Pol values compiled below
outcome-measure: DNA Pol

>>> experimental_value("Cl.NC(CO)C(=O)NNCc1ccc(O)c(O)c1O (centres unmarked)")
84
>>> experimental_value("O=C1N=C(Nc2cccc(Cl)c2Cl)S/C1=C\\c1ccco1 [Molecule 3, O=C1N=C(S/C/1=C\\c1ccco1)Nc1cccc(c1Cl)Cl]")
74
>>> experimental_value("O=C(NNC(=O)c1ccc(Cl)cc1)C(=O)NNC(=O)c1ccc(Cl)cc1")
75
>>> experimental_value("Cc1cccc2c(C(=O)NC(C)C)cc(N(C)C)nc12")
22
>>> experimental_value("COc1ccc(C(=O)N2CCc3c(nc4cc(-c5ccccc5Cl)[nH]n4c3=O)C2)cn1")
36
>>> experimental_value("CCC(C)NC(=O)c1cc(NC(C)=O)cc2nc(C)ccc12 (centres unmarked)")
24
>>> experimental_value("O=C1c2ccccc2C(=O)N1Oc1ccc([N+](=O)[O-])c([N+](=O)[O-])c1")
72
>>> experimental_value("O=C(Cn1ccc2c(=O)[nH]ccc21)Nc1cc(F)ccc1F [Molecule 42, O=C(Cn1ccc2c1cc[nH]c2=O)Nc1cc(F)ccc1F]")
40

* * *

List of % inhibition Apo pol 10' values.
- assay-system: P. falciparum apicoplast DNA polymerase (Pf-apPOL) (Plasmodium falciparum, UniProt Q8ILY1)
- Sequence (Q8ILY1 entry or part of it): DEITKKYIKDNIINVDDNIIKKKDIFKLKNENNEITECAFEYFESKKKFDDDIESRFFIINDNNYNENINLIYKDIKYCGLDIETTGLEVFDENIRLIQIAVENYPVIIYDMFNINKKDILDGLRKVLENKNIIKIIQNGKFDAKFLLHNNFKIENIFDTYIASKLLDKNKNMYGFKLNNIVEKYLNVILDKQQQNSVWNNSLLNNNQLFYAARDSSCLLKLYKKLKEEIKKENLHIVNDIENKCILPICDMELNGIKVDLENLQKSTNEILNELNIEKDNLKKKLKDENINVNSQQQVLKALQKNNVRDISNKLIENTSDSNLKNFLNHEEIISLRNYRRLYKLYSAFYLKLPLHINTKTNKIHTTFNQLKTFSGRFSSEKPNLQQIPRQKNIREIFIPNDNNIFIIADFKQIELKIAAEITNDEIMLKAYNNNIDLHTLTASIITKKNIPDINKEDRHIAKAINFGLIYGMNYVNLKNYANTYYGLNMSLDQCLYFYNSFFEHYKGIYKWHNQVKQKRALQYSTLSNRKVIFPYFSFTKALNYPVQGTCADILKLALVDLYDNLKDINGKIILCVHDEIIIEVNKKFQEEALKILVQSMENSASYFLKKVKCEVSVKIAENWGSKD
- test-description: Fluorescence-based high-throughput DNA polymerase assay (molecular beacon), primary screen and dose-response
- Format: biochemical
- condition-info: DRC-1; 10'; concentration 5
outcome-measure: % inhibition Apo pol 10' (%)

>>> experimental_value("CSC1=C(C#N)C(=C(C#N)C#N)NC(c2ccccc2)=N1 [Molecule 2, CSc1nc([nH]c(=C(C#N)C#N)c1C#N)c1ccccc1]")
41.8918
>>> experimental_value("O=C(Nc1c2c(nn1-c1ccc(Oc3ccccc3)cc1)CSC2)c1ccco1")
29.5283
>>> experimental_value("O=C(O)c1cccc(N2N=C(C(F)(F)F)/C(=C/c3ccc(-c4ccccc4[N+](=O)[O-])o3)C2=O)c1")
12.0969
>>> experimental_value("CCOc1cccc2cc(C(=O)Nc3nnc(-c4ccno4)o3)oc12")
33.541
>>> experimental_value("O=C(O)CCS(=O)(=O)c1ccc(-c2ccc(S(=O)(=O)CCC(=O)O)cc2)cc1")
45.6696
>>> experimental_value("Cc1nn(CC(=O)NCCSCc2ccco2)c(C)c1Br")
6.711
>>> experimental_value("Oc1cccc2ccc(/C=C/c3ccc4c(c3)OCO4)nc12")
11.208
>>> experimental_value("COc1ccc(NC(=O)Cn2ccc3c(=O)[nH]ccc32)cc1 [Molecule 13, COc1ccc(cc1)NC(=O)Cn1ccc2c1cc[nH]c2=O]")
32.1099

* * *

- assay-system: P. falciparum apicoplast DNA polymerase (Pf-apPOL) (Plasmodium falciparum, UniProt Q8ILY1)
- test-description: Fluorescence-based high-throughput DNA polymerase assay (molecular beacon), primary screen and dose-response
- Format: biochemical
- condition-info: DRC-2; 90'; concentration 80
Examples of compounds with documented % inhibition ApPOL 90' follow.
outcome-measure: % inhibition ApPOL 90' (%)

>>> experimental_value("O=C(Cn1ccc2c(=O)[nH]ccc21)Nc1ccc(Cl)cc1 [Molecule 36, O=C(Cn1ccc2c1cc[nH]c2=O)Nc1ccc(cc1)Cl]")
61
>>> experimental_value("COc1ccc(C=C2Oc3c(ccc4c3CN(c3ccc5c(c3)OCO5)CO4)C2=O)cc1OC [KU0199426]")
43
>>> experimental_value("Cc1ccc2c(C(=O)NCCc3cccnc3)cc(NC(=O)C(C)C)cc2n1 [KU0206096]")
75
>>> experimental_value("COc1cccc(C(=O)N2CCc3c(nc4cc(-c5ccccc5)[nH]n4c3=O)C2)c1OC [Molecule 22]")
70
>>> experimental_value("Cc1ccc(-n2nnc(C(=O)O)c2-c2ccccn2)c(F)c1 [Molecule 54, Cc1ccc(c(c1)F)n1nnc(c1c1ccccn1)C(=O)O]")
45
>>> experimental_value("COc1cc(NC(=O)c2ccccc2)c(OC)cc1NC(=O)Cc1cccs1 [KU0032113]")
47
>>> experimental_value("COc1ccc(CNC(=O)Cn2nc3c(c2NC(=O)Cc2cccs2)CSC3)cc1 [Molecule 55]")
63
>>> experimental_value("CCOC(=O)C1=C2c3cc(OC)c(OC)cc3CC(C)(C)N2C(=O)C1=O [KU0193659]")
62

* * *

- assay-system: P. falciparum apicoplast DNA polymerase (Pf-apPOL) (Plasmodium falciparum, UniProt Q8ILY1)
- test-description: Fluorescence-based high-throughput DNA polymerase assay (molecular beacon), primary screen and dose-response
- Format: biochemical
- condition-info: DRC-1; 10'; concentration 80
Listed here are compounds together with their documented % inhibition Apo pol 10'.
outcome-measure: % inhibition Apo pol 10' (%)

>>> experimental_value("CN(C)C=C1SCc2ccccc2C1=O [Molecule 77, CN(C=C1SCc2c(C1=O)cccc2)C]")
84.5209
>>> experimental_value("CC1=NNC(=O)C1Oc1ccc(Cl)cc1Cl (stereo not shown) [KU0265591]")
74.8276
>>> experimental_value("O=[N+]([O-])c1ccc(/C=C/c2ccc3ccccc3n2)o1 [Molecule 21, O=N(=O)c1ccc(o1)/C=C/c1ccc2c(n1)cccc2]")
40.0961
>>> experimental_value("O=C(CSc1nnc(-c2ccco2)[nH]1)c1ccc(Cl)cc1 [KU0029065]")
73.082
>>> experimental_value("O=C(NNC(=O)C(F)(F)Sc1ccccc1)c1ccsc1 [Molecule 68, O=C(C(Sc1ccccc1)(F)F)NNC(=O)c1cscc1]")
81.7014
>>> experimental_value("Nc1c(S(=O)(=O)O)cc(Nc2ccccc2)c2c1C(=O)c1ccccc1C2=O [KU0045407]")
101.451
>>> experimental_value("O=C(Nc1nnc(-c2ccno2)o1)c1ccc2ncsc2c1 [Molecule 62, O=C(c1ccc2c(c1)scn2)Nc1nnc(o1)c1ccno1]")
81.399
>>> experimental_value("Cc1cc(C)cc(-n2nc3c(c2NC(=O)c2ccco2)CSC3)c1 [KU0055926]")
87.3935
>>> experimental_value("CCCCOC(=O)CCCCCN1C(=O)C(=Cc2ccc(OC)cc2)SC1=S [Molecule 75]")
85.0535
>>> experimental_value("Cl.NC(CO)C(=O)NNCc1ccc(O)c(O)c1O (stereo not shown) [KU0260493]")
40.9646
>>> experimental_value("CCOc1ccccc1-c1nc(-c2ccc(=O)[nH]c2)no1 [Molecule 76, CCOc1ccccc1c1onc(n1)c1ccc(=O)[nH]c1]")
52.085
>>> experimental_value("O=C1N/C(=N/c2ccccc2Cl)S/C1=C/c1ccc([N+](=O)[O-])o1 [KU0054524]")
85.9961
>>> experimental_value("CN1CC(=Cc2ccco2)C(=O)C(=Cc2ccco2)C1 [Molecule 65, CN1CC(=Cc2ccco2)C(=O)C(=Cc2ccco2)C1]")
69.4432
>>> experimental_value("CO/N=C(\\C(=O)N[C@@H]1C(=O)N2C(C(=O)[O-])=C(CSc3nc(=O)c([O-])nn3C)CSC12)c1csc(N)n1.[Na+].[Na+] (stereo partly shown) [Molecule 83]")
74.1492
>>> experimental_value("O=C(Nc1cccc(Cl)c1)Nc1nnc(-c2ccncc2)s1 [KU0022348]")
86.8157
>>> experimental_value("O=c1cc(-c2ccccc2Cl)oc2c(NS(=O)(=O)c3cc(Cl)cc(Cl)c3O)ccc(O)c12 [KU0104277]")
90.8547

* * *

- assay-system: P. falciparum apicoplast DNA polymerase (Pf-apPOL) (Plasmodium falciparum, UniProt Q8ILY1)
- test-description: Fluorescence-based high-throughput DNA polymerase assay (molecular beacon), primary screen and dose-response;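 as to % inhibition Apol 40': compound concentration given in µM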
- Assay type: biochemical
- condition-info: DRC-2; concentration 10; 40'
- Excerpt: The HT assay employs a molecular beacon, a stem-loop DNA template with a Cy3 dye and the Black Hole Quencher on the 3′ and 5′ ends of the DNA, respectively. Pf-apPOL concentration is based on a calculated absorptivity of ε280 = 56750 M^−1 cm^−1. […] To identify apPOL inhibitors we utilised our previously developed high-throughput DNA polymerase assay. […] The assay accurately recapitulates the kinetic behaviour of apPOL, as measured through more conventional low-throughput gel-based assays. […]
Some molecules, each annotated with its measured % inhibition Apol 40'.
outcome-measure: % inhibition Apol 40'

>>> experimental_value("O=[N+]([O-])c1ccc(SCc2ccco2)c2cccnc12")
"39%"
>>> experimental_value("O=C(O)c1cc([N+](=O)[O-])c(N2CCN(c3cccc(C(F)(F)F)c3)CC2)c([N+](=O)[O-])c1")
"8.56%"
>>> experimental_value("O=C(Cc1cccs1)N1CCN(c2nc(CN3CCOCC3)cs2)CC1")
"43%"
>>> experimental_value("Cc1ccc(C2=N/C(=C\\c3ccc(I)o3)C(=O)O2)cc1[N+](=O)[O-]")
"42%"
>>> experimental_value("COc1ccc(-c2occ(C(=O)O)c2C(=O)O)cc1")
"48%"

Provenance of the data: paper PMC9090415
